# credit: ChEMBL document CHEMBL1135925

# assay.summary: Lipophilicity (calculated by CLIP)
endpoint.label: CLIP

# example entries with known answers
| smiles | reported |
| --- | --- |
| O=C1NC(c2ccc(F)cc2)(c2ccc(F)cc2)C(=O)N1CCN1CCOCC1 | 2.81 |
| O=C1NC(c2ccc(Br)cc2)(c2ccc(Br)cc2)C(=O)N1CCN1CCOCC1 | 3.86 |

I: O=C1NC(c2ccccc2)(c2ccccc2)C(=O)N1CCN1CCCCC1
II: CCCCCCCN1C(=O)NC(c2ccc(F)cc2)(c2ccc(F)cc2)C1=O
// task: argmin of CLIP over [ I , II ] Respond using the label that marks the chosen record.
I
